Provide the recorded Emax for the entries that follow.
System: AP-1 induced transcriptional activity
Assay Text: Cellular Transrepressional Assay: AP-1 luciferase reporter in PMA-activated A549 cells
Format: cell-based
Condition Context: Homo sapiens, A549, 7 h, maximum inhibition, Cellular Transrepression Assay; read-out: AP-1 Max % inh (Cellular Transrepression Assay)
Dear colleague, please send the value followed by its unit.

In: Please tell me: Emax of CC(C)(C(=O)Nc1nc(-c2ccc(F)c3ccccc23)cs1)C(c1ccccc1)c1ccccc1 [Example 183] , system AP-1 induced transcriptional activity?
Out: 65.3%

In: CC(C)(C(=O)Nc1nncs1)C(c1ccccc1)c1ccc(-c2ccc(Cl)cc2)cc1 (stereo not shown) [Example 403] , same question.
Out: 24.9%

In: CC(C)(C(=O)Nc1nc(Cc2ccc(-c3ccncc3)cc2)cs1)C(c1ccc(O)cc1)c1ccc(O)cc1 [Example 356] , same question.
Out: 61.1%

In: CC(C)Cc1ccc(-c2ccc(C(CC(C)C)C(C)(C)C(=O)Nc3nccs3)cc2)cc1 (stereo not shown) [Example 396] , same question.
Out: 31.5%

* * *

Provide the recorded log10 of Ki for the entries that follow.
System Under Test: human full-length glucocorticoid receptor (Homo sapiens)
Construct: recombinantly expressed human full-length glucocorticoid receptor; purchased PanVera Co., Madison, Wis; P2816
Sequence (P04150 whole entry): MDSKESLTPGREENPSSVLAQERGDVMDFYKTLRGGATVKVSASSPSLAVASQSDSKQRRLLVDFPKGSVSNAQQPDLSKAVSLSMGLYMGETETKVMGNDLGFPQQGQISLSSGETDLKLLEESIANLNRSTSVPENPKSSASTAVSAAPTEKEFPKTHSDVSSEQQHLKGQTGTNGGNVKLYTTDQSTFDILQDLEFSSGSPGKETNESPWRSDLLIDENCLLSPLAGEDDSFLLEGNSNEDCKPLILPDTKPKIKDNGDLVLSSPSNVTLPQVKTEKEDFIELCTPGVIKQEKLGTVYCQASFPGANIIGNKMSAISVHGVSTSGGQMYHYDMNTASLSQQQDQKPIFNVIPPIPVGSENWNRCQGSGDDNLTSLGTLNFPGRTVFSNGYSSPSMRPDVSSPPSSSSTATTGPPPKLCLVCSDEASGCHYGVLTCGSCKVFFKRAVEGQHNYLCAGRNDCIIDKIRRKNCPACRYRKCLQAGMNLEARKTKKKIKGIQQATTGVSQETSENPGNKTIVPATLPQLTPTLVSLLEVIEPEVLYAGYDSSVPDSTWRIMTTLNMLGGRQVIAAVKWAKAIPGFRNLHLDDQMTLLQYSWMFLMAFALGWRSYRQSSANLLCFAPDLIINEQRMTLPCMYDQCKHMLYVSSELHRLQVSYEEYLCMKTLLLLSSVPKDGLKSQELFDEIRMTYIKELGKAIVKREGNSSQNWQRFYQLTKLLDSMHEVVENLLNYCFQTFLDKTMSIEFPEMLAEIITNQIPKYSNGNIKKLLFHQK
Assay Text: Glucocorticoid Receptor Binding Assay (II), fluorescence polarization competitor kit (Fluormone GS1)
Condition Context: GR Binding Assay (II)
Values below are the log10 of the recorded Ki, with nM as the unit.

In: I have this compound here, CC(C)(C(=O)Nc1nccs1)[C@H](c1ccccc1)c1cccc(O)c1 , and I need its recorded log10 of Ki.
Out: 1.25

In: CC(C)(C(=O)Nc1nccs1)C(c1ccccc1)c1ccc(O)c(F)c1 (centres unmarked) , same question.
Out: 1.20

In: CC(C)(C(=O)Nc1nncs1)[C@@H](c1ccccc1)c1ccc(N2CCOCC2)cc1 (stereo in doubt) , same question.
Out: 2.28

In: CC(C)(C(=O)Nc1nccs1)C(c1ccccc1)c1cccc(C#N)c1 (centres unmarked) , same question.
Out: 1.76

In: CC(C)(C(=O)Nc1nccs1)[C@@H](c1ccccc1)c1cccc(O)c1 , same question.
Out: 1.96

In: COc1ccc(C(c2ccccc2)C(C)(C)C(=O)Nc2nncs2)cc1F (centres unmarked) [Example 284] , same question.
Out: 1.43

In: CC(C)(C(=O)Nc1nncs1)C(c1ccccc1)c1ccc(O)cc1F (centres unmarked) , same question.
Out: 1.64

In: COc1ccc(C(c2ccccc2)C(C)(C)C(=O)Nc2nncs2)cc1F (centres unmarked) [Example 285] , same question.
Out: 1.14

In: CC(C)(C(=O)Nc1ccccn1)[C@@H](c1ccccc1)c1ccc(O)cc1 , same question.
Out: 2.24

In: COc1ccc([C@@H](c2ccccc2)C(C)(C)C(=O)Nc2ncc(C)s2)cc1 , same question.
Out: 2.48

In: CC(C)(C(=O)Nc1nccs1)C(C)(c1ccccc1)c1ccccc1 , same question.
Out: 2.67

In: CC(C)(C(=O)Nc1nccs1)C(c1ccccc1)c1ccc(N2CCC(O)CC2)cc1 (centres unmarked) , same question.
Out: 0.98

In: CC(C)(C(=O)Nc1nccs1)[C@H](c1ccccc1)c1ccc(O)c(C#N)c1 , same question.
Out: 1.36

In: CC(C)(C(=O)Nc1nccs1)C(C)(c1ccccc1)c1ccc(N2CCOCC2)cc1 (centres unmarked) , same question.
Out: 2.26

In: CC(C)(C(=O)Nc1nccs1)C(c1ccccc1)c1ccc(-c2ccoc2)cc1 (centres unmarked) , same question.
Out: 1.20

In: Cc1csc(NC(=O)C(C)(C)[C@@H](c2ccccc2)c2ccc(O)cc2)n1 , same question.
Out: 1.23

In: CC(C)(C)OC(=O)N1CCN(c2ccc(C(c3ccccc3)C(C)(C)C(=O)Nc3nncs3)cc2)CC1 (centres unmarked) , same question.
Out: 2.61

In: COc1ccc(C(c2ccccc2)C(C)(C)C(=O)Nc2nccs2)cc1F (centres unmarked) [Example 283] , same question.
Out: 0.96

In: COc1ccc([C@H](c2ccccc2)C(C)(C)C(=O)Nc2ccccn2)cc1 , same question.
Out: 3.43

In: COc1ccc([C@@H](c2ccccc2)C(C)(C)C(=O)Nc2nccs2)cc1Br , same question.
Out: 1.67

In: CC(O)c1ccc(C(c2ccccc2)C(C)(C)C(=O)Nc2nccs2)cc1 (centres unmarked) , same question.
Out: 1.58

In: CC(C)(C(=O)Nc1nccs1)C(c1ccccc1)c1ccc(F)cc1 (centres unmarked) [Example 309] , same question.
Out: 1.88

In: Cc1ccc(C(c2ccc(N3CCOCC3)cc2)C(C)(C)C(=O)Nc2nncs2)cc1 (centres unmarked) , same question.
Out: 0.97

In: CC(C)(C(=O)Nc1nccs1)C(c1ccccc1)c1ccc(F)cc1 (centres unmarked) [Example 307] , same question.
Out: 1.19

In: CC(C)(C(=O)Nc1nncs1)C(c1ccccc1)c1ccc(N2CCC(O)CC2)cc1 (centres unmarked) , same question.
Out: 1.50

In: CC(C)(C)OC(=O)Nc1ccc(C(c2ccccc2)C(C)(C)C(=O)Nc2nncs2)cc1 (centres unmarked) , same question.
Out: 2.49

In: CC(C)(C(=O)Nc1nncs1)C(c1ccccc1)c1ccc(N2CCCC2)cc1 (centres unmarked) , same question.
Out: 1.13

In: CC(C)(C(=O)Nc1nccs1)C(c1ccccc1)c1ccc(F)cc1 (centres unmarked) [Example 308] , same question.
Out: 1.54

In: CC(C)(C(=O)Nc1nccs1)[C@H](c1ccccc1)c1ccc(OC(=O)c2ccoc2)cc1 , same question.
Out: 1.50

In: CC(=O)Nc1ccc(C(c2ccccc2)C(C)(C)C(=O)Nc2nccs2)cc1 (centres unmarked) , same question.
Out: 2.62

In: CC(C)(C(=O)Nc1nccs1)C(c1ccccc1)c1ccc(Cl)cc1 (centres unmarked) , same question.
Out: 1.42

In: COc1ccc(C(c2ccccc2)C(C)(C)C(=O)Nc2nccs2)cc1F (centres unmarked) [Example 281] , same question.
Out: 1.19

In: Cc1cnc(NC(=O)C(C)(C)[C@H](c2ccccc2)c2ccc(O)cc2)s1 , same question.
Out: 2.31

In: COc1ccc(C(c2ccccc2)C(C)(C)C(=O)Nc2nccs2)cc1F (centres unmarked) [Example 282] , same question.
Out: 1.47

In: COc1ccc([C@H](c2ccccc2)C(C)(C)C(=O)NC2CC2)cc1 , same question.
Out: 3.11

* * *

Provide the recorded Emax for the entries that follow.
Tested on: AP-1 induced transcriptional activity
Assay Text: Cellular Transrepressional Assay: AP-1 luciferase reporter in PMA-activated A549 cells
Assay type: cell-based
Condition Context: Homo sapiens, A549, 7 h, maximum inhibition, Cellular Transrepression Assay; read-out: AP-1 Max % inh (Cellular Transrepression Assay)
Kindly answer with a numeric value in %, unit omitted.

In: I have this molecule here, CC(C)(C(=O)Nc1nncs1)C(c1ccccc1)c1ccc(-c2ccc(C(=O)NC3CC3)cc2)cc1 (stereo not drawn) , and I need its recorded Emax.
Out: 28.7

In: CC(C)(C(=O)Nc1nncs1)C(c1ccc(N2CCOCC2)cc1)c1cccc(F)c1 (single isomer, unassigned) [Example 255] , same question.
Out: 43

In: CC(C)(C(=O)Nc1nccs1)[C@@H](c1ccccc1)c1ccc(OC(=O)c2ccco2)cc1 , same question.
Out: 33.4

In: CC(C)(C(=O)Nc1nncs1)C(c1ccc(N2CCOCC2)cc1)c1cccc(F)c1 (stereo not drawn) [Example 229] , same question.
Out: 44.2

In: CC(=O)c1ccc(-c2ccc(C(c3ccccc3)C(C)(C)C(=O)Nc3nncs3)cc2)cc1 (stereo not drawn) , same question.
Out: 29.4

In: COc1ccccc1C(c1ccccc1)C(C)(C)C(=O)Nc1nc(C)cs1 (stereo not drawn) , same question.
Out: 23.1

In: CC(C)(C(=O)Nc1nccs1)[C@@H](c1ccccc1)c1ccc(OC(=O)C2CCCO2)cc1 (stereo partly drawn) , same question.
Out: 32.6

In: CC(C)(C(=O)Nc1nccs1)C(c1ccccc1)c1cccc(O)c1 (stereo not drawn) , same question.
Out: 36.3

In: Cc1cccc(C(c2ccc(N3CCOCC3)cc2)C(C)(C)C(=O)Nc2nccs2)c1 (stereo not drawn) , same question.
Out: 39

In: COc1ccc(C(c2ccccc2)C(C)(C)C(=O)Nc2nc(-c3ccccc3)cs2)cc1 (stereo not drawn) , same question.
Out: 38.4

In: COc1cccc2sc(NC(=O)C(C)(C)C(c3ccccc3)c3ccccc3)nc12 , same question.
Out: 22.9

In: CC(C)(C(=O)Nc1nccs1)[C@@H](c1ccccc1)c1ccc(O)c(Br)c1 , same question.
Out: 81.8

In: CC(C)(C(=O)Nc1nc(Cc2ccc(-c3ccncc3)cc2)cs1)[C@@H](c1ccccc1)c1ccc(O)cc1 , same question.
Out: 71.8

In: CC(C)(c1ccccc1)c1csc(NC(=O)C(C)(C)C(c2ccccc2)c2ccccc2)n1 , same question.
Out: 28.9

In: CC(C)(C(=O)Nc1nc2ccc(Cl)cc2s1)C(c1ccccc1)c1ccc(O)cc1 (stereo not drawn) , same question.
Out: 36.2

In: COc1ccc(C(c2ccccc2)C(C)(C)C(=O)Nc2nc(C)cs2)cc1 (stereo not drawn) , same question.
Out: 27.3

In: CC(C)(C(=O)Nc1nccs1)C(c1ccccc1)c1ccc(O)c(F)c1 (stereo not drawn) , same question.
Out: 68.1

In: CCOC(=O)c1sc(NC(=O)C(C)(C)C(c2ccccc2)c2ccc(O)cc2)nc1C (stereo not drawn) , same question.
Out: 38

In: COc1ccc(-c2ccc(C(c3ccccc3)C(C)(C)C(=O)Nc3nncs3)cc2)cc1 (stereo not drawn) , same question.
Out: 26.2

In: CC(=O)c1ccc(C(c2ccccc2)C(C)(C)C(=O)Nc2nncs2)cc1 (stereo not drawn) , same question.
Out: 34.9

In: COc1ccc(C(c2ccccc2)C(C)(C)C(=O)Nc2nc(C)c(C)s2)cc1 (stereo not drawn) , same question.
Out: 35.9

In: CCCCOc1ccc(-c2ccc(C(CC(C)C)C(C)(C)C(=O)Nc3nncs3)cc2)cc1 (stereo not drawn) , same question.
Out: 22.7

In: COc1ccccc1C(c1ccccc1)C(C)(C)C(=O)Nc1nc(-c2ccccc2)cs1 (stereo not drawn) , same question.
Out: 30.8

In: CC(C)c1ccc(-c2ccc(C(c3ccccc3)C(C)(C)C(=O)Nc3nncs3)cc2)cc1 (stereo not drawn) , same question.
Out: 33.7

In: COc1ccc(Cc2csc(NC(=O)C(C)(C)C(c3ccccc3)c3cccc(OC)c3)n2)cc1 (stereo not drawn) , same question.
Out: 78.7

In: COc1cccc(C(c2ccccc2)C(C)(C)C(=O)Nc2nc(C)c(C)s2)c1 (stereo not drawn) , same question.
Out: 35.4

In: COc1ccc(Cc2csc(NC(=O)C(C)(C)C(c3ccccc3)c3ccc(O)cc3)n2)cc1 (stereo not drawn) , same question.
Out: 61.7

In: CC(C)CC(c1ccc(-c2ccc(OC(C)C)cc2)cc1)C(C)(C)C(=O)Nc1nncs1 (stereo not drawn) , same question.
Out: 32.5

In: Cc1ccc(-c2csc(NC(=O)C(C)(C)C(c3ccccc3)c3ccccc3)n2)c2ccccc12 , same question.
Out: 75.2

In: Cc1csc(NC(=O)C(C)(C)C(c2ccccc2)c2cccc(O)c2)n1 (stereo not drawn) , same question.
Out: 25.8

In: Cc1ccc(C(c2ccc(N3CCOCC3)cc2)C(C)(C)C(=O)Nc2nccs2)cc1 (stereo not drawn) , same question.
Out: 43.7

In: CC(C)(C(=O)Nc1nccs1)C(c1ccc(O)cc1)c1ccc(O)cc1 , same question.
Out: 20.5

In: COc1cccc(C(c2ccccc2)C(C)(C)C(=O)Nc2nc(-c3ccccc3)cs2)c1 (stereo not drawn) , same question.
Out: 36.2
